Listed molecules paired with reported pEC50
# experimental target: G protein-coupled receptor 119 (GPR-119) (Mesocricetus auratus)
# Construct: hamster-derived β-cells containing G protein-coupled receptor 119 (GPR-119), HIT-T15 cells; host or cells: HIT-T15 (hamster pancreatic β-cells)
# Sequence (A0A1U8CD06 1-334): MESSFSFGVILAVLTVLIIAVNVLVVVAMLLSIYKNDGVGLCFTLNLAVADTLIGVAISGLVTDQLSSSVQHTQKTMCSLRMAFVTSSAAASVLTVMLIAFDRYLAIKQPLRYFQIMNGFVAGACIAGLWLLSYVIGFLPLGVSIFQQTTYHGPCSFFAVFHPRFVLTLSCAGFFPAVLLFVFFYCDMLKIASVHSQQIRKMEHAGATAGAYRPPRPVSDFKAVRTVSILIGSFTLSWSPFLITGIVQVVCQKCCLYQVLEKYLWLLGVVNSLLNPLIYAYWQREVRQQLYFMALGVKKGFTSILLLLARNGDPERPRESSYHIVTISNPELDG
# test details: Evaluation of cAMP activity in HIT-T15 cells (HTRF cAMP dynamic kit)
# Format: cell-based, hamster
# cond: cAMP activation, 1 h at 37° C., six concentrations, read-out: EC50
pEC50: −log10 of the molar value.
measured parameter: pEC50

                                    molecule                       experimental_target  value
 0  CCN(CCO)C(=O)C1CC=C(c2ccc(OCC3CCN(C(=O)OC(C)(C)C)CC3)cc2)CC1 (stereo not drawn)  G protein-coupled receptor 119 (GPR-119) (Mesocricetus auratus)   8.10
 1  CCc1cnc(N2CCC(COc3ccc(C4=CCC(C(=O)N5CC[C@H](CO)C5)CC4)cc3)CC2)nc1 (stereo partly drawn) [Example 152]  G protein-coupled receptor 119 (GPR-119) (Mesocricetus auratus)   7.44
 2  CC(C)(C)OC(=O)N1CCC(COc2ccc(C3=CCC(C(=O)NCC(F)(F)F)CC3)cn2)CC1 (stereo not drawn)  G protein-coupled receptor 119 (GPR-119) (Mesocricetus auratus)   6.89
 3  CC(C)c1noc(N2CCC(COc3ccc(C4=CCC(C(=O)N[C@@H](C)CO)CC4)nc3)CC2)n1 (stereo partly drawn)  G protein-coupled receptor 119 (GPR-119) (Mesocricetus auratus)   6.52
 4  CC(C)c1noc(N2CCC(COc3ccc(C4=CCC(C(=O)NC[C@H](C)O)CC4)cc3)CC2)n1 (stereo partly drawn)  G protein-coupled receptor 119 (GPR-119) (Mesocricetus auratus)   7.02
 5  CC(C)(C)OC(=O)N1CCC(COc2ccc(C3=CCC(C(=O)N4CCOCC4)CC3)cc2)CC1 (stereo not drawn)  G protein-coupled receptor 119 (GPR-119) (Mesocricetus auratus)   7.89
 6  CCc1cnc(N2CCC(COc3ccc(C4=CCC(C(=O)N5C/C(=N\OC)C6(CN(C(=O)OC(C)(C)C)C6)C5)CC4)cc3)CC2)nc1 (stereo not drawn)  G protein-coupled receptor 119 (GPR-119) (Mesocricetus auratus)   8.00
 7  CC(C)c1noc(N2CCC(COc3ccc(C4=CCC(C(=O)NC(CO)CO)CC4)nc3)CC2)n1 (stereo not drawn)  G protein-coupled receptor 119 (GPR-119) (Mesocricetus auratus)   6.30
 8  CC(C)(C)OC(=O)N1CCC(COc2ccc(C3=CCC(C(=O)NC[C@H](O)CO)CC3)c(F)c2)CC1 (stereo partly drawn)  G protein-coupled receptor 119 (GPR-119) (Mesocricetus auratus)   6.68
 9  CC(C)c1noc(N2CCC(COc3ccc(C4=CCC(C(=O)N(C)CCCN)CC4)cc3)CC2)n1 (stereo not drawn)  G protein-coupled receptor 119 (GPR-119) (Mesocricetus auratus)   7.92
10  CON=C1CCN(C(=O)C2CC=C(c3ccc(OCC4CCN(c5nc(C(C)C)no5)CC4)cc3)CC2)CC1 (stereo not drawn)  G protein-coupled receptor 119 (GPR-119) (Mesocricetus auratus)   7.74
11  C[C@@H](CO)NC(=O)C1CC=C(c2ccc(OCC3CCN(C(=O)OC(C)(C)C)CC3)cn2)CC1 (stereo partly drawn)  G protein-coupled receptor 119 (GPR-119) (Mesocricetus auratus)   6.96
12  CC(C)(C)OC(=O)N1CCC(COc2ccc(C3=CCC(C(=O)N4CCN(CC5CC5)CC4)CC3)cc2)CC1 (stereo not drawn)  G protein-coupled receptor 119 (GPR-119) (Mesocricetus auratus)   7.49
13  CC(C)c1noc(N2CCC(COc3ccc(C4=CCC(C(=O)N[C@@H](C)CO)CC4)cc3F)CC2)n1 (stereo partly drawn)  G protein-coupled receptor 119 (GPR-119) (Mesocricetus auratus)   7.12
14  CON=C1CN(C(=O)C2CC=C(c3ccc(OCC4CCN(c5nc(C(C)C)no5)CC4)cc3)CC2)C1 (stereo not drawn)  G protein-coupled receptor 119 (GPR-119) (Mesocricetus auratus)   7.43
